# Species: Homo sapiens
# experimental_protocol: Cytotoxicity against cell line mS determined by MTT test
# Format: functional
So I've got a bunch of molecules here, and I need their pIC50 values.
Friendly reminder that pIC50 comes from taking -log10 of the concentration in mol/L.

Value of measured pIC50 for the entry COc1ccc(CNCCN(C/C=C(\C)CCC=C(C)C)Cc2ccc(OC)c(OC)c2)cc1OC.Cl : 4.40

For COc1ccc(CNCCN(C/C=C(\C)CC/C=C(\C)CC/C=C(\C)CC/C=C(\C)CC/C=C(\C)CC/C=C(\C)CC/C=C(\C)CC/C=C(\C)CCC=C(C)C)Cc2ccc(OC)c(OC)c2)cc1OC the molecule record lists pIC50 as 4.07
